Provide the reported relative viability of each item.
Tested on: NCI-H838
Method summary: relative viability (nuclei count vs DMSO), 5 days (fraction); higher = more cells survive
Protocol conditions: first compound 2.53 µM
Write the number on its own, no unit after it.

Query :: Request the reported relative viability associated with Oc1nc(-c2ccc(C(F)(F)F)cc2)nc2c1CSCC2 [XAV939] + CCNC(=O)c1noc(-c2cc(C(C)C)c(O)cc2O)c1-c1ccc(CN2CCOCC2)cc1 [Luminespib] (partner 0.01 µM)
Result :: 0.304

Query :: Please answer likewise for C=C1C(=O)O[C@@H](CCCCCCCC)[C@@H]1C(=O)O [C-75] + O=C(c1cc(Cc2n[nH]c(=O)c3ccccc23)ccc1F)N1CCN(C(=O)C2CC2)CC1 [Olaparib] (partner 8 µM)
Result :: 0.725

Query :: Please answer likewise for C=C1C(=O)O[C@@H](CCCCCCCC)[C@@H]1C(=O)O [C-75] + N=C(N)NC(=N)NCCc1ccccc1 [Phenformin] (partner 250 µM)
Result :: 0.453

Query :: Please answer likewise for Oc1nc(-c2ccc(C(F)(F)F)cc2)nc2c1CSCC2 [XAV939] + COc1cccc2cc(-c3nc([C@H]4CC[C@H](C(=O)O)CC4)n4ncnc(N)c34)[nH]c12 [OSI-027] (partner 0.5 µM)
Result :: 0.301

Query :: Please answer likewise for C=C1C(=O)O[C@@H](CCCCCCCC)[C@@H]1C(=O)O [C-75] + Nc1ncn([C@H]2C[C@H](O)[C@@H](CO)O2)c(=O)n1 [Decitabine] (partner 2 µM)
Result :: 0.369

---

Test system: NCI-H2405
Method summary: relative viability (nuclei count vs DMSO), 5 days (fraction); higher = more cells survive
Protocol conditions: first compound 2.53 µM
Provide the reported relative viability of each item.
Write the number on its own, no unit after it.

Query :: Request the reported relative viability associated with C=C1C(=O)O[C@@H](CCCCCCCC)[C@@H]1C(=O)O [C-75] + CC1(C)CCC(c2ccc(Cl)cc2)=C(CN2CCN(c3ccc(C(=O)NS(=O)(=O)c4ccc(N[C@H](CCN5CCOCC5)CSc5ccccc5)c(S(=O)(=O)C(F)(F)F)c4)cc3)CC2)C1 [Navitoclax] (partner 0.5 µM)
Result :: 0.83

Query :: Please answer likewise for C=C1C(=O)O[C@@H](CCCCCCCC)[C@@H]1C(=O)O [C-75] + COc1cccc2cc(-c3nc([C@H]4CC[C@H](C(=O)O)CC4)n4ncnc(N)c34)[nH]c12 [OSI-027] (partner 0.5 µM)
Result :: 0.519

Query :: Please answer likewise for C=C1C(=O)O[C@@H](CCCCCCCC)[C@@H]1C(=O)O [C-75] + CS(=O)(=O)CCNCc1ccc(-c2ccc3ncnc(Nc4ccc(OCc5cccc(F)c5)c(Cl)c4)c3c2)o1 [Lapatinib] (partner 2 µM)
Result :: 1.07

Query :: Please answer likewise for C=C1C(=O)O[C@@H](CCCCCCCC)[C@@H]1C(=O)O [C-75] + CS(=O)(=O)N1CCN(Cc2cc3nc(-c4cccc5[nH]ncc45)nc(N4CCOCC4)c3s2)CC1 [Pictilisib] (partner 1 µM)
Result :: 0.408

---

Tested on: NCI-H2023
Method summary: relative viability (nuclei count vs DMSO), 5 days (fraction); higher = more cells survive
Protocol conditions: first compound 0.03162 µM
Recorded endpoint: relative viability
Write the number on its own, no unit after it.

Query :: Request the reported relative viability associated with NC(=O)Nc1cc(-c2cccc(F)c2)sc1C(=O)N[C@H]1CCCNC1 [AZD7762] + CS(=O)(=O)CCNCc1ccc(-c2ccc3ncnc(Nc4ccc(OCc5cccc(F)c5)c(Cl)c4)c3c2)o1 [Lapatinib] (partner 2 µM)
Result :: 0.758

Query :: Please answer likewise for NC(=O)Nc1cc(-c2cccc(F)c2)sc1C(=O)N[C@H]1CCCNC1 [AZD7762] + O=C(CCCCCCC(=O)Nc1ccccc1)NO [Vorinostat] (partner 1 µM)
Result :: 0.415

Query :: Please answer likewise for NC(=O)Nc1cc(-c2cccc(F)c2)sc1C(=O)N[C@H]1CCCNC1 [AZD7762] + CC(=O)c1c(C)c2cnc(Nc3ccc(N4CCNCC4)cn3)nc2n(C2CCCC2)c1=O [Palbociclib] (partner 0.5 µM)
Result :: 0.377

Query :: Please answer likewise for NC(=O)Nc1cc(-c2cccc(F)c2)sc1C(=O)N[C@H]1CCCNC1 [AZD7762] + O=C(c1cc(Cc2n[nH]c(=O)c3ccccc23)ccc1F)N1CCN(C(=O)C2CC2)CC1 [Olaparib] (partner 8 µM)
Result :: 0.323

Query :: Please answer likewise for NC(=O)Nc1cc(-c2cccc(F)c2)sc1C(=O)N[C@H]1CCCNC1 [AZD7762] + COc1cccc2cc(-c3nc([C@H]4CC[C@H](C(=O)O)CC4)n4ncnc(N)c34)[nH]c12 [OSI-027] (partner 0.5 µM)
Result :: 0.331

Query :: Please answer likewise for NC(=O)Nc1cc(-c2cccc(F)c2)sc1C(=O)N[C@H]1CCCNC1 [AZD7762] + CC(=O)Nc1cccc(-n2c(=O)n(C3CC3)c(=O)c3c(Nc4ccc(I)cc4F)n(C)c(=O)c(C)c32)c1 [Trametinib] (partner 0.02 µM)
Result :: 0.46

Data provenance: the supplement of paper PMC10307832
